B1: HDV Ribozyme (parent)
chain: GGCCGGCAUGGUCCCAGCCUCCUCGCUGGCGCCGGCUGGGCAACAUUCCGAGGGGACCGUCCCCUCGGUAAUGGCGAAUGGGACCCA

Variants of: B1
protocol: self-cleavage, relative activity (ratio to wild type); higher = more cleavage; co-transcriptional
reported-property: self-cleavage
Form rule: numeric answer, no unit written next to it.

variant-name	reported-value
C62A A77C	0.623
U20G G25A	0
G50U U60G	0.831
G39A G55A	0.683

Fill in: self-cleavage of U12G U60A is ___ 0.68

Fill in: self-cleavage of G50A A56G is ___ 1.15

Fill in: self-cleavage of A43U C86G is ___ 0.325

Fill in: self-cleavage of C49G A56C is ___ 0.785

Fill in: self-cleavage of C32G G52C is ___ 0.208

Fill in: self-cleavage of C41G A56C is ___ 0.942

Fill in: self-cleavage of A70G G73C is ___ 0.356

Fill in: self-cleavage of A51G G81C is ___ 0.266
